Entry source: patent US20230150974A1

- TARGET_SYSTEM: HiBiT-BRM (Homo sapiens, UniProt P51531)
- Construct: expressed in transfected cells
- Sequence (P51531 whole entry): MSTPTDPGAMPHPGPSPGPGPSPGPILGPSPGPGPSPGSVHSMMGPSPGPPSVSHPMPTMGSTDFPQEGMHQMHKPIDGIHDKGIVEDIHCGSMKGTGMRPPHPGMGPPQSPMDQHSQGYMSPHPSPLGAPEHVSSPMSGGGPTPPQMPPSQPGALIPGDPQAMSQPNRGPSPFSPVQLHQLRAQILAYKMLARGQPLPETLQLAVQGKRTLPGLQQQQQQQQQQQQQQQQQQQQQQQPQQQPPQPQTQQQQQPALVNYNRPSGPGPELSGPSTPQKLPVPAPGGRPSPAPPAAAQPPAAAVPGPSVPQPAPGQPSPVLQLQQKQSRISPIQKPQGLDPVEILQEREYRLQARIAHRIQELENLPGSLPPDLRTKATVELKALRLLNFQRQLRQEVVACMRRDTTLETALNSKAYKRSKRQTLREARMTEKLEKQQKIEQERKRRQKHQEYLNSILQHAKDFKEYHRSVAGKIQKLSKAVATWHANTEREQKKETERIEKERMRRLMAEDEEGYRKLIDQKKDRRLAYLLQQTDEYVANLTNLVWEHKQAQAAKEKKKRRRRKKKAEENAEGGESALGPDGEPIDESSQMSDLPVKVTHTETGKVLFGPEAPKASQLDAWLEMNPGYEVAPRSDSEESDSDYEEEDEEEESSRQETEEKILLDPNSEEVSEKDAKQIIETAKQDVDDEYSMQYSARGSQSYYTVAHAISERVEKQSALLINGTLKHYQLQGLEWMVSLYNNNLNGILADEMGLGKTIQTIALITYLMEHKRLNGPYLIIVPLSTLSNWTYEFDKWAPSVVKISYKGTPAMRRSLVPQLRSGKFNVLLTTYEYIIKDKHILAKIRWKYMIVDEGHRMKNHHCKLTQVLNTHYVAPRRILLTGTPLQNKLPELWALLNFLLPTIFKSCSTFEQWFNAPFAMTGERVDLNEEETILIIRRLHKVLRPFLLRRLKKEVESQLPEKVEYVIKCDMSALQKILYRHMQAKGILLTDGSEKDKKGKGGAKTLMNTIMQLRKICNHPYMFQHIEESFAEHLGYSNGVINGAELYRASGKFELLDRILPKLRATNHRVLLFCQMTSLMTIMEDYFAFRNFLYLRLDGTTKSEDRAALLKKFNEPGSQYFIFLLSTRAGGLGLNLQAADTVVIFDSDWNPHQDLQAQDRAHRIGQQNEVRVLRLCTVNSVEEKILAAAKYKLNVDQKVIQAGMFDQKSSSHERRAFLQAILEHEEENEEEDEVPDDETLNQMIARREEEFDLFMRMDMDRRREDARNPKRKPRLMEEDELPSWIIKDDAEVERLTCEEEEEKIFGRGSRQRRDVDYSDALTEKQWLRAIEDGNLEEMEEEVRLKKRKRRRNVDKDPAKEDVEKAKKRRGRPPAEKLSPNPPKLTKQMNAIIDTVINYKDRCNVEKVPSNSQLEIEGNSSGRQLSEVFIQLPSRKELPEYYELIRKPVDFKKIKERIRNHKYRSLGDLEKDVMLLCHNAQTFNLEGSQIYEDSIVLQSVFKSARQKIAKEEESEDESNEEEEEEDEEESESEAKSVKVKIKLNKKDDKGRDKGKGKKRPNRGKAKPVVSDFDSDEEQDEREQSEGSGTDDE
- EXPERIMENT_DESCRIPTION: HiBiT-BRM cell-based degradation assay (Nano-Glo HiBiT Lytic Detection)
- REPORTED_CONDITIONS: HeLa cells expressing HiBiT-BRM, 24 h; read-out: BRM HiBit Degradation IC50
QUANTITY_NAME: DC50

Cc1ncsc1-c1ccc([C@H](C)NC(=O)[C@@H]2C[C@@H](O)CN2C(=O)[C@@H](c2cc(OCCN3CCC(C(=O)NCc4ccc(CCOc5cc(-c6ccccc6O)nnc5N)cc4)CC3)no2)C(C)C)cc1 [Compound 176]: > 10 nM
Nc1nnc(-c2ccccc2O)cc1OCCc1ccc(CNCCN2CC3CC2CN3c2cccc3c2C(=O)N(C2CCC(=O)NC2=O)C3=O)cc1 (stereo not drawn) [Compound 158]: > 100 nM
Cc1ncsc1-c1ccc([C@H](C)NC(=O)[C@@H]2C[C@@H](O)CN2C(=O)[C@@H](c2cc(OCCN3C[C@@H]4CN(C(=O)c5ccc(CCOc6cc(-c7ccccc7O)nnc6N)cc5)C[C@@H]4C3)no2)C(C)C)cc1 [Compound 190]: > 10 nM
Cc1ncsc1-c1ccc(CNC(=O)[C@@H]2C[C@@H](O)CN2C(=O)[C@@H](NC(=O)COCCOCCOCCNC(=O)CN2CCN(c3cc(-c4ccccc4O)nnc3N)CC2)C(C)(C)C)cc1 [Compound 86]: > 1000 nM
Nc1nnc(-c2ccccc2O)cc1N1CCN(CCNC(=O)CCCOc2cccc3c2C(=O)N(C2CCC(=O)NC2=O)C3=O)CC1 (stereo not drawn) [Compound 84]: > 1000 nM

*Q* Given the molecule Nc1nnc(-c2ccccc2O)cc1OCCc1ccc(C(=O)NCCCCCCCCCC(=O)NCc2ccc(S(=O)(=O)Nc3cccc4c(Cl)c[nH]c34)cc2)cc1 [Compound 12] , what is its reported DC50?
*A* > 1000 nM

*Q* Cc1ncsc1-c1ccc(CNC(=O)[C@@H]2C[C@@H](O)CN2C(=O)[C@@H](NC(=O)CCN2CCC(C3CN(C(=O)c4ccc(CCOc5cc(-c6ccccc6O)nnc5N)cc4)C3)CC2)C(C)(C)C)cc1 [Compound 204] ?
*A* > 1000 nM

*Q* Cool, now Nc1nnc(-c2ccccc2O)cc1OCCc1ccc(C(=O)NCCC(=O)NCc2ccc(S(=O)(=O)Nc3cccc4c(Cl)c[nH]c34)cc2)cc1 [Compound 17]
*A* > 1000 nM

*Q* Now give it for Nc1nnc(-c2ccccc2O)cc1OCCc1ccc(C(=O)NCC(=O)NCc2ccc(S(=O)(=O)Nc3cccc4c(Cl)c[nH]c34)cc2)cc1 [Compound 18] too.
*A* > 1000 nM

*Q* And then Cc1ncsc1-c1ccc(CNC(=O)[C@@H]2C[C@@H](O)CN2C(=O)[C@@H](NC(=O)CCCCCCCCC(=O)NCc2ccc(CCOc3cc(-c4ccccc4O)nnc3N)cc2)C(C)(C)C)cc1 [Compound 138] , what is it?
*A* > 100 nM

*Q* Cc1ncsc1-c1ccc([C@H](C)NC(=O)[C@@H]2C[C@@H](O)CN2C(=O)[C@@H](NC(=O)CCN2CCC3(CCN(CCC(=O)NCc4ccc(CCOc5cc(-c6ccccc6O)nnc5N)cc4)CC3)CC2)C(C)(C)C)cc1 [Compound 250] , same question.
*A* > 1000 nM

*Q* Thanks! And Cc1ncsc1-c1ccc(CNC(=O)[C@@H]2C[C@@H](O)CN2C(=O)[C@@H](NC(=O)CCN2C[C@H]3CN(CCC(=O)NCc4ccc(CCOc5cc(-c6ccccc6O)nnc5N)cc4)C[C@H]3C2)C(C)(C)C)cc1 [Compound 235] ?
*A* > 1000 nM
